Provenance of the data: ChEMBL document CHEMBL5154928

target: Protein arginine N-methyltransferase 5 (Homo sapiens, UniProt O14744); assay: Displacement of [3H]-SAM from PRMT5 (unknown origin) using peptide substrate preincubated for 15 mins followed by substrate addition for 60 mins by radioactive biochemical assay
Sequence (O14744 whole entry): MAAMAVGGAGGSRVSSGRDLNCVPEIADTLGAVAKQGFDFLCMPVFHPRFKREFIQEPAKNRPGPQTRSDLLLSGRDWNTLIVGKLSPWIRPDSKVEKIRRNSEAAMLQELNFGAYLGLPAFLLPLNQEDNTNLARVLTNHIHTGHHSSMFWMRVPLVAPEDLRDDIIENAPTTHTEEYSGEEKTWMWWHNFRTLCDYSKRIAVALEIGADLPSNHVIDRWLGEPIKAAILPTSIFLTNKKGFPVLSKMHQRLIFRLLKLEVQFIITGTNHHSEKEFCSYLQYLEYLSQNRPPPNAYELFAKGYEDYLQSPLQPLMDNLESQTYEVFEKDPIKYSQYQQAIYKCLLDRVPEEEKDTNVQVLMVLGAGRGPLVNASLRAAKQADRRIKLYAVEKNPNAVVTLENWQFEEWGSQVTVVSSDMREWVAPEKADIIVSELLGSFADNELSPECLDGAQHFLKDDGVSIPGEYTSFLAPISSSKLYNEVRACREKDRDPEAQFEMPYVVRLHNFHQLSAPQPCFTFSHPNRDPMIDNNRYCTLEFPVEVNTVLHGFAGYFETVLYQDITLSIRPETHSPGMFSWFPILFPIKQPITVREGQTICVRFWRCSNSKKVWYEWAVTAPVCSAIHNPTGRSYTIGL
READOUT_KIND: log10(IC50) (log10 of the value in nM)

COMPOUND	log10(IC50)
Nc1ncnc2[nH]c(-c3ccc(OCc4ccccc4)cc3)nc12	1.77
CN1CCCN(c2ncnc3[nH]c(-c4ccc(OCc5ccccc5)cc4)cc23)CC1	1.22
c1ccc(COc2ccc(-c3nc4c(N5CCOCC5)ncnc4[nH]3)cc2)cc1	1.65
C[C@H](Oc1ccc(-c2nc3c(C4=CCNCC4)ncnc3[nH]2)c(F)c1)c1ccccc1	1.90
CC1(O)CCN(c2ncnc3[nH]c(-c4ccc(OCc5ccccc5)cc4)cc23)CC1	1.95
CC(Oc1ccc(-c2nc3c(C4=CCNCC4)ncnc3[nH]2)cc1)c1ccccc1 (racemic)	1.57
CC(Oc1ccc(-c2cc3c(C4=CCNCC4)ncnc3[nH]2)cc1)c1ccccc1 (racemic)	1.64
Nc1ncnc2[nH]c(-c3ccc(OCc4ccccc4)cc3)cc12	1.92
C[C@H](Oc1ccc(-c2nc3c(C4=CCNCC4)ncnc3[nH]2)cc1)c1ccccc1	1.54
C[C@@H]1CN(c2ncnc3[nH]c(-c4ccc(OCc5ccccc5)cc4)cc23)C[C@H](C)N1	1.34
CC(Oc1ccc(-c2nc3c(C4=CCNCC4)ncnc3[nH]2)c(F)c1)c1ccccc1 (racemic)	2.37
C[C@@H](Oc1ccc(-c2cc3c(C4=CCNCC4)ncnc3[nH]2)c(F)c1)c1ccccc1	2.01
C[C@@H](Oc1ccc(-c2cc3c(C4=CCNCC4)ncnc3[nH]2)cc1)c1ccccc1	1.68
C1=C(c2ncnc3[nH]c(-c4ccc(OCc5ccccc5)cc4)cc23)CCNC1	0.90
CCN1CCN(c2ncnc3[nH]c(-c4ccc(OCc5ccccc5)cc4)cc23)CC1	1.85
C1=C(c2ncnc3[nH]c(-c4ccc(OCc5ccccc5)cc4)nc23)CCNC1	1.15
c1ccc(COc2ccc(-c3cc4c(-c5cn[nH]c5)ncnc4[nH]3)cc2)cc1	2.05
COc1cc(O[C@@H](C)c2ccccc2)ccc1-c1cc2c(C3=CCNCC3)ncnc2[nH]1	2.29
C[C@@H](Oc1ccc(-c2nc3c(C4=CCNCC4)ncnc3[nH]2)cc1)c1ccccc1	2.06
